- measurementTarget: ErbB1 (Homo sapiens, UniProt P00533)
- Construct: gift of Dr. Mark A. Lemmon, University of Pennsylvania School of Medicine
- Sequence (P00533 25-645 limits assumed): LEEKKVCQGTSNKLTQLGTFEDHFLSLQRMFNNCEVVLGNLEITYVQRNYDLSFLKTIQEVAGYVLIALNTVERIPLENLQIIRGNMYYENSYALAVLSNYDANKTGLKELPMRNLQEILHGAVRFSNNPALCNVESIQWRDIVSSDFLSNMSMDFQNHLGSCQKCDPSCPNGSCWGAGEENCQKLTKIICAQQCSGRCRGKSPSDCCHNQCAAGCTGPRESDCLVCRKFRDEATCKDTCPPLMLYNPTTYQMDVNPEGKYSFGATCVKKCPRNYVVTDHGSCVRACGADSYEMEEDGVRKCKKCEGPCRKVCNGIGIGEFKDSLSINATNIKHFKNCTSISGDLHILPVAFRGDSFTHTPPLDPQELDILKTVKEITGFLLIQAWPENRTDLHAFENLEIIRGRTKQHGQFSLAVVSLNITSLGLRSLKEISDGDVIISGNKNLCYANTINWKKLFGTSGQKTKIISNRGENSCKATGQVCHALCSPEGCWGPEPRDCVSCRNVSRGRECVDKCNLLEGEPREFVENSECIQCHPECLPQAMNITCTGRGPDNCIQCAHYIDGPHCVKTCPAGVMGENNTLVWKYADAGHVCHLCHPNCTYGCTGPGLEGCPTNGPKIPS
- testProtocol: Surface plasmon resonance (Biacore) binding to immobilized ErbB1 extracellular domain
- protocolConditions: immobilized extracellular domain, surface plasmon resonance; read-out: KD (μM) ErbB1
Bridge positions count the residues as written; N and C are the ends. Peptide text beside a SMILES is read from it.
Record form. Attribute: Kd. Fill in for each entry.
Reply numerically in µM, unit not repeated.

[ask] // fetch Kd given entry CC(C)C[C@@H]1NC(=O)[C@@H](NC(=O)[C@@H](N)Cc2ccc(O)cc2)CSSC[C@@H](C(=O)N[C@@H](Cc2ccc(O)cc2)C(N)=O)NC(=O)CNC(=O)[C@H](C)NC(=O)[C@H](CC(=O)O)NC(=O)[C@H](C)NC(=O)[C@H](Cc2ccc(O)cc2)NC(=O)[C@H](CCCCN)NC(=O)[C@H](Cc2c[nH]c3ccccc23)NC(=O)[C@H](C(C)C)NC1=O [B1-S22-ALG] (H-YCLVWKYADAGCY-NH2; disulfide 2-12)
[reply] 0.449

[ask] // fetch Kd given entry C[C@@H]1NC(=O)CNC(=O)[C@H](CCC(=O)O)NC(=O)[C@H](CCC(=O)O)NC(=O)[C@H](CC(=O)O)NC(=O)[C@@H]2CCCN2C(=O)[C@H](Cc2ccccc2)NC(=O)[C@@H](NC(=O)[C@@H](N)Cc2ccc(O)cc2)CSSC[C@@H](C(=O)N[C@@H](Cc2ccc(O)cc2)C(N)=O)NC1=O [B2-S22-AFA, YCFPDEEGACY] (H-YCFPDEEGACY-NH2; disulfide 2-10)
[reply] 0.407

[ask] // fetch Kd given entry CC[C@H](C)[C@@H]1NC(=O)[C@H](Cc2ccccc2)NC(=O)[C@@H](NC(=O)[C@@H](N)Cc2ccc(O)cc2)CSSC[C@@H](C(=O)N[C@@H](Cc2ccc(O)cc2)C(N)=O)NC(=O)[C@H](CC(=O)O)NC(=O)[C@@H]2CCCN2C(=O)[C@H](CC(=O)O)NC(=O)[C@H](C)NC(=O)[C@H](Cc2ccc(O)cc2)NC(=O)[C@H](CCCCN)NC(=O)[C@H](Cc2ccccc2)NC1=O [B4-S22-AFD] (H-YCFIFKYADPDCY-NH2; disulfide 2-12)
[reply] 0.583
